target: Pepsin A (Sus scrofa); assay: Tested for time independent inhibition constant against porcine pepsin
pKi: −log10 of the molar value. Non-standard residues stand in square brackets, D forms with d. Residues, ends and D or L forms follow the SMILES beside them. *: point of attachment. Sta = CC(C)C[C@H](N)[C@@H](O)CC(=O)O; Isovaleryl = CC(C)CC(=O)*
pKi of 7 or higher: condition met. Under 7: condition not met.

Observe how each entry below is paired with its result.
{"molecule": "CCOC(=O)CC(O)C(CC(C)C)NC(=O)C(NC(=O)CC(C)C)C(C)C (centres undefined)", "answer_label": "condition not met"}
{"molecule": "CC(C)CC(=O)NC(C(=O)NC(CC(C)C)C(O)CC(=O)NC(C)C)C(C)C (centres undefined)", "answer_label": "condition not met"}
{"molecule": "CC(C)CCNC(=O)CNC(=O)CC(O)C(CC(C)C)NC(=O)C(NC(=O)CC(C)C)C(C)C (centres undefined)", "answer_label": "condition met"}
{"molecule": "CC(C)CCNC(=O)C(C)NC(=O)CC(O)C(CC(C)C)NC(=O)C(CC(C)C)NC(=O)CC(C)C (centres undefined)", "answer_label": "condition met"}
{"molecule": "COC(=O)C(C)NC(=O)CC(O)C(CC(C)C)NC(=O)C(NC(=O)CC(C)C)C(C)C (centres undefined)", "answer_label": "condition not met"}

Dear colleague, could you confirm whether CCOC(=O)C[C@H](O)[C@H](CC(C)C)NC(=O)[C@@H](NC(=O)[C@@H](NC(=O)CC(C)C)C(C)C)C(C)C (Isovaleryl-Val-Val-[Sta]-OEt) has pKi at or above 7? condition met

====

biological target: Pepsin A (Sus scrofa, UniProt P00791); experiment: Tested for time dependent inhibition constant against porcine pepsin
Sequence (P00791 whole entry): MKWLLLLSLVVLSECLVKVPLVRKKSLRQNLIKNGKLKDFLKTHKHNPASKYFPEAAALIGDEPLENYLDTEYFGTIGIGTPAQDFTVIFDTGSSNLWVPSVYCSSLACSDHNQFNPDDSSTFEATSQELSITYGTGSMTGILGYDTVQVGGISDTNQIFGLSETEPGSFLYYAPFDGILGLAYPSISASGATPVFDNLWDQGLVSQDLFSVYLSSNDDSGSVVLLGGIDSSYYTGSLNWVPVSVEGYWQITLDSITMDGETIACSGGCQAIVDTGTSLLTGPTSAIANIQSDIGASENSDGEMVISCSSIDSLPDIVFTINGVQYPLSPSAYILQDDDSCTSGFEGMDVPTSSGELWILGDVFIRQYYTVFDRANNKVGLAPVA
Non-standard residues stand in square brackets, D forms with d. Residues, ends and D or L forms follow the SMILES beside them. *: point of attachment. Sta = CC(C)C[C@H](N)[C@@H](O)CC(=O)O; Isovaleryl = CC(C)CC(=O)*
quantity_measured: pKi
On this scale, pKi is minus log10 of a concentration expressed in M (mol/L).

Sample records with pKi:
{"molecule": "COC(=O)[C@H](C)NC(=O)C[C@H](O)[C@H](CC(C)C)NC(=O)[C@@H](NC(=O)[C@@H](NC(=O)CC(C)C)C(C)C)C(C)C (Isovaleryl-VV[Sta]A-OMe)", "quantity_measured": "pKi", "meas_value": 8.46}
{"molecule": "CC(C)CC(=O)NC(C(=O)NC(CC(C)C)C(O)CC(=O)NC(C)C(=O)NC(C)C)C(C)C (centres undefined)", "quantity_measured": "pKi", "meas_value": 7.70}
{"molecule": "CC(C)CCNC(=O)C(CC(C)C)NC(=O)CC(O)C(CC(C)C)NC(=O)C(NC(=O)CC(C)C)C(C)C (centres undefined)", "quantity_measured": "pKi", "meas_value": 8.34}

Would you kindly look at the next entry?
# query: pKi | item COC(=O)C(CC(C)C)NC(=O)C(C)NC(=O)CC(O)C(CC(C)C)NC(=O)C(NC(=O)CC(C)C)C(C)C (centres undefined) | system: Pepsin A (Sus scrofa, UniProt P00791) 8.96

====

target: Pepsin A (Sus scrofa); assay: Tested for time dependent inhibition constant against porcine pepsin
quantity_measured: Ki
Dear colleague, please send the value followed by its unit.

{"molecule": "COC(=O)C(Cc1ccccc1)NC(=O)C(C)NC(=O)CC(O)C(CC(C)C)NC(=O)C(NC(=O)CC(C)C)C(C)C (stereo not drawn)", "meas_value": "1.5 nM"}

# query: Ki | item CC(C)CCNC(=O)C(C)NC(=O)CC(O)C(CC(C)C)NC(=O)C(C)NC(=O)CC(C)C (stereo not drawn) | system: Pepsin A (Sus scrofa) 30 nM

# query: Ki | item CC(C)CCNC(=O)C(C)NC(=O)CC(O)C(CC(C)C)NC(=O)C(NC(=O)CC(C)C)C(C)C (stereo not drawn) | system: Pepsin A (Sus scrofa) 3 nM
